Target: T1, shFcRn (soluble human FcRn) (human, UniProt P55899 24-297; P61769 21-119)
T1 construct: extracellular domain; Printed only as 'soluble human FcRn'; also called hFcRn (immobilized on a chip)
T1 sequence (P55899 24-297 limits assumed, chain 1 of 2): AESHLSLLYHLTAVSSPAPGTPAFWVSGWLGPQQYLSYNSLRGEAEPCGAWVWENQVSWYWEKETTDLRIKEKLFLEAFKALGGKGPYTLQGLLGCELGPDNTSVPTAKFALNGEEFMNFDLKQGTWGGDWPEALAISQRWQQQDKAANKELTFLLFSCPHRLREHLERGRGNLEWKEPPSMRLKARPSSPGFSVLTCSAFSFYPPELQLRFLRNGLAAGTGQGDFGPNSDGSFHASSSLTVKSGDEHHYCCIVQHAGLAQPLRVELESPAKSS
T1 sequence (P61769 21-119 limits assumed, chain 2 of 2): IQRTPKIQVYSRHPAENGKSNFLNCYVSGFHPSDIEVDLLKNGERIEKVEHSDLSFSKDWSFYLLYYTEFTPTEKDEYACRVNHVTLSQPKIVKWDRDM
Assay: SPR, shFcRn immobilized on chip, antibody as analyte, pH 7.4;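 further: kinetics fitted with a 1:1 Langmuir model, association 200 s and dissociation 600 s in PBST, double-referenced against buffer-only and interspot signals, values averaged over repeated runs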
Consider the following binders and their measured koff readings.
Dear colleague, please return just the value in s⁻¹, with no unit written.

INSERT INTO results (binder, measured) VALUES
  ('HL161AN variant No. 20 (LC:N25Q, HC:C32Y Q82S) (antibody, human IgG1, V domains shown, Variable domains only) VL: SYVLTQPPSVSVAPGQTARITCGGQNIGSTSVHWYQQKPGQAPVLVVHDDSDRPSGIPERFSGSNSGNTATLTISRVEAGDEADYYCQVRDSSSDHVIFGGGTKLTVLGQPKAAPSVTL VH: EVQLLESGGGLVQPGGSLRLSCAASEFTFGSYVMTWVRQAPGKGLEWVSVISGSGGSTYYADSVKGRFTISRDNSKNTLYLSMNSLRAEDTAVYYCAKTPWWLRSPFFDYWGQGTLVTVSS', 0.00056);

Alright, here's another binder for you.
Q) Which koff value is on record for HL161AN variant No. 14 (LC:N25Q, HC:Q82S) (antibody, human IgG1, V domains shown, Variable domains only) VL: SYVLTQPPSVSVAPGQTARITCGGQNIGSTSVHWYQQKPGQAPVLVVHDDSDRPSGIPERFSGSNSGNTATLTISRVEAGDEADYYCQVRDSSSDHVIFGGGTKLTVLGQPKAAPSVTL VH: EVQLLESGGGLVQPGGSLRLSCAASEFTFGSCVMTWVRQAPGKGLEWVSVISGSGGSTYYADSVKGRFTISRDNSKNTLYLSMNSLRAEDTAVYYCAKTPWWLRSPFFDYWGQGTLVTVSS ?
A) 0.000551
